assay: MTT cell viability (cytotoxicity) assay on L929 cells; format: cell-based, mouse; conditions: mouse, L929 mouse fibroblast cells, 125.00 µg/mL, 24 h, % of untreated cells
Assignment: determine reported viability at 24 h, 125 µg/mL for the given compounds.
The reply must contain the numeric value and, after it, the unit.

Below: 3 compounds and their reported viability at 24 h, 125 µg/mL.
[[record]]
compound = "Cc1nc[nH]c1C(=O)NNC(=S)Nc1ccc(N(C)C)cc1 [Compound 19]"
obs_value = "68.5%"

[[record]]
compound = "Cc1nc[nH]c1C(=O)NNC(=S)Nc1ccc([N+](=O)[O-])cc1 [Compound 4]"
obs_value = "79.6%"

[[record]]
compound = "Cc1nc[nH]c1C(=O)NNC(=S)Nc1cccc(Cl)c1 [Compound 10]"
obs_value = "69.9%"


Form field: reported viability at 24 h, 125 µg/mL of COc1cccc(NC(=S)NNC(=O)c2[nH]cnc2C)c1 [Compound 6]
68.8%

----------
Hi there, I'd appreciate the recorded viability at 24 h, 62.5 µg/mL for every entry that follows.
assay: MTT cell viability (cytotoxicity) assay on L929 cells; type: cell-based, mouse; details: mouse, L929 mouse fibroblast cells, 62.50 µg/mL, 24 h, % of untreated cells
Give bare numbers, in %.

Sample answers from the record:
[[record]]
smiles_notation = "Cc1nc[nH]c1C(=O)NNC(=S)NCc1ccccc1"
readout_units = "%"
obs_value = 88.8

[[record]]
smiles_notation = "COc1ccccc1NC(=S)NNC(=O)c1[nH]cnc1C"
readout_units = "%"
obs_value = 78.5


Required: viability at 24 h, 62.5 µg/mL, one value per molecule below.
1. Cc1nc[nH]c1C(=O)NNC(=S)Nc1ccc([N+](=O)[O-])cc1
2. COc1cccc(NC(=S)NNC(=O)c2[nH]cnc2C)c1
3. Cc1nc[nH]c1C(=O)NNC(=S)Nc1ccc(N(C)C)cc1
4. Cc1nc[nH]c1C(=O)NNC(=S)Nc1cccc([N+](=O)[O-])c1

[88.9, 79.7, 78.6, 79]

Would you be so kind as to report viability at 24 h, 62.5 µg/mL for each listed record?
1. Cc1ccccc1NC(=S)NNC(=O)c1[nH]cnc1C
2. Cc1nc[nH]c1C(=O)NNC(=S)Nc1ccccc1[N+](=O)[O-]
3. Cc1nc[nH]c1C(=O)NNC(=S)Nc1c(C(C)C)cccc1C(C)C

1: 91.2; 2: 89.7; 3: 79.8

----------
Experiment: MTT cell viability (cytotoxicity) assay on L929 cells
Type: cell-based, mouse
Details: mouse, L929 mouse fibroblast cells, 500.00 µg/mL, 24 h, % of untreated cells
Method: Cells were trypsinized twice a week, and seeded at density 1 × 10^6 per T25 cell culture flask, and incubated for 24-48 h at 37 °C and 10% CO2 to achieve a confluent monolayer. […] The final concentration of DMSO in compounds dilutions was not higher than 1.00%. […] Optical density was read on the ELISA reader (Multiskan EX, Labsystems, Vienna, VA, USA) at 570 nm. The results were expressed as the percentage of viability compared to untreated cells. […]
MEASURE: viability at 24 h, 500 µg/mL (%)
Give bare numbers, in %.

Examples from the recorded data:
[[record]]
smiles_notation = "CCN(CC)c1ccc(NC(=S)NNC(=O)c2[nH]cnc2C)cc1"
obs_value = 12.9

[[record]]
smiles_notation = "COc1ccc(NC(=S)NNC(=O)c2nc[nH]c2C)cc1"
obs_value = 68.6


Dear colleague, could you send me viability at 24 h, 500 µg/mL for each of the items below? Thanks.
1. CCOc1ccc(NC(=S)NNC(=O)c2[nH]cnc2C)cc1
2. Cc1nc[nH]c1C(=O)NNC(=S)Nc1ccc(N(C)C)cc1
3. CC(=O)c1cccc(NC(=S)NNC(=O)c2[nH]cnc2C)c1
4. Cc1nc[nH]c1C(=O)NNC(=S)Nc1cc(F)ccc1F
5. Cc1nc[nH]c1C(=O)NNC(=S)Nc1cccc([N+](=O)[O-])c1
6. Cc1nc[nH]c1C(=O)NNC(=S)Nc1cccc(F)c1
7. Cc1ccccc1NC(=S)NNC(=O)c1[nH]cnc1C

[72, 53.3, 56.2, 51.2, 15.3, 46.3, 63.4]

Quick batch: viability at 24 h, 500 µg/mL for everything below.
1. COc1cccc(NC(=S)NNC(=O)c2[nH]cnc2C)c1
2. Cc1nc[nH]c1C(=O)NNC(=S)Nc1c(C(C)C)cccc1C(C)C
3. Cc1nc[nH]c1C(=O)NNC(=S)Nc1cccc(Cl)c1
4. COc1ccc(NC(=S)NNC(=O)c2[nH]cnc2C)cc1OC

1. 56.8
2. 58.8
3. 22.1
4. 77

Entry Cc1nc[nH]c1C(=O)NNC(=S)NCc1ccccc1 has what viability at 24 h, 500 µg/mL?
46.6
